src = PubChem BioAssay

z-score: recorded values
experiment: osmotic lysis modulators in infected erythrocytes, primary screen, PSAC antagonist project, cell-based, P. falciparum Indochina, OD700, 3 h (AID 1156); details: higher = more signal, called active from +8 up or from −8 down

>  <compound>
COC(=O)[C@@H]1CC[C@H](C)[C@@H](c2ccc(C)cc2)N1C(=O)c1ccc(C=NOC[C@@H](C)[C@H](OCc2ccccc2)C(C)C)cc1

>  <z-score>
-0.467

$$$$
>  <compound>
CC(=O)Nc1ccc([C@@H]2N[C@H](C(=O)O)CC[C@H]2C)cc1

>  <z-score>
-0.23

$$$$
>  <compound>
CCOC(=O)[C@H](Cc1ccccc1)NC(=O)CCC1CC(OC(=O)NCCc2ccc(F)cc2)CC2(CCCC(COC(=O)NCC3CCCCC3)O2)O1 (some centres not stated)

>  <z-score>
0.753

$$$$
>  <compound>
O=C(C=Cc1ccc2c(c1)OCO2)c1ccc(F)cc1

>  <z-score>
-0.0309

$$$$
>  <compound>
O=C1[C@H]2[C@H]3[C@H](O)[C@H](O)CC(=NOC[C@@H](O)COCc4ccco4)[C@H]3CC[C@H]2C(=O)N1C[C@@H]1CCCO1

>  <z-score>
-0.425

$$$$
>  <compound>
CC(C)(C)N1C(=O)[C@H]2[C@H]3[C@H](O)[C@H](O)CC(=NO[C@@H]4O[C@H](CO)[C@@H](O)[C@H](O)[C@H]4O)[C@H]3CC[C@H]2C1=O

>  <z-score>
1.01

$$$$
>  <compound>
O=C1[C@H]2[C@H]3[C@H](O)[C@H](O)CC(=NOC[C@@H](O)COCc4ccco4)[C@@H]3CC[C@H]2C(=O)N1C[C@@H]1CCCO1

>  <z-score>
-0.0602

$$$$
